B1: TPR t1 (parent)
chain: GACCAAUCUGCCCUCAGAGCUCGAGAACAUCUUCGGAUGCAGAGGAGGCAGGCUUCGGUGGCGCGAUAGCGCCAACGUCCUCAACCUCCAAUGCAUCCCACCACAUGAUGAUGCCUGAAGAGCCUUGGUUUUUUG

Variants of: B1
Test: polymerase ribozyme fitness, log enrichment relative to wild type (log ratio); higher = more active; in vitro selection for triplet polymerase activity
Use Y when the recorded polymerase ribozyme fitness (log ratio) is no lower than -3; use N when it is lower.

Inquiry: Evaluate G19U C82A : polymerase ribozyme fitness (log ratio) at minimum -3?
Reply text: N

Continuing:
Inquiry: Could you tell me if the measured polymerase ribozyme fitness (log ratio) of U7C A27U C79U reaches -3 or more?
Reply text: N

Inquiry: Follow-up entry: A50C G52C C56G G63A G77U
Reply text: N

Inquiry: Same read-out for G25U C34U G63C G93C G117C A121C G122A G127U ?
Reply text: N

Inquiry: Now this one: G45U C62U U112G U126A G128A U130A
Reply text: N

Inquiry: C76A G110A , same question.
Reply text: Y

Inquiry: Field entry: C20U C56A
Reply text: Y

Inquiry: How about U9A G61A A75U U96G A121G U129C G135U ?
Reply text: Y

Inquiry: # iterate: A18U C114G
Reply text: N

Inquiry: And then G60C U81C U116A , what is it?
Reply text: Y

Inquiry: Same question for C12G G93A please.
Reply text: Y

Inquiry: Same thing, different variant: U14C U21C G61A C101U
Reply text: N

Inquiry: Again, but for C20U C40A G63U C123U
Reply text: N

Inquiry: Another: U38A U54G U112C G120A
Reply text: Y

Inquiry: Now this one: C12G C64A U133A
Reply text: N

Inquiry: And for C73U A90G C124A ?
Reply text: Y

Inquiry: What would you report for A66U U106C ?
Reply text: Y

Inquiry: Try this variant next: C123U U126A
Reply text: Y

Inquiry: Entry to check: G52A G57A C82U C85A A121U
Reply text: Y

Inquiry: How about this variant: G61C G120C
Reply text: Y

Inquiry: Follow-up entry: C56G G69U C124U
Reply text: Y

Inquiry: Similarly, C8A A27C U33G G36C G42U G110C G113C ?
Reply text: N

Inquiry: Okay, and G19C G71U C114A G128A ?
Reply text: Y

Inquiry: What do you get for C13U A18U A118G ?
Reply text: Y

Inquiry: Now consider U14C G61U A75C A105C .
Reply text: N

Inquiry: Also check A41C G61C G93C
Reply text: N

Inquiry: Also check A37U G63U A105C
Reply text: N

Inquiry: Consider next the variant A43G C102A in the same way.
Reply text: N
